- Tested on: Probable mesothelioma (pleural effusion)
- protocol-text: MiCK assay, drug-induced apoptosis, Table 3 tumor A2
- Type: cell-based, human
- protocol-conditions: Table 3 tumor A2: Probable mesothelioma (pleural effusion); 48 hours with drug
reported-property: kinetic units (KU) of apoptosis

1. COc1cccc2c1C(=O)c1c(O)c3c(c(O)c1C2=O)C[C@@](O)(C(C)=O)C[C@@H]3O[C@H]1C[C@H](N)[C@H](O)[C@H](C)O1    3.80
2. CC(=O)O[C@H]1C(=O)[C@@]2(C)[C@H]([C@H](OC(=O)c3ccccc3)[C@]3(O)C[C@H](OC(=O)[C@H](O)[C@@H](NC(=O)c4ccccc4)c4ccccc4)C(C)=C1C3(C)C)[C@]1(OC(C)=O)CO[C@@H]1C[C@@H]2O    1.40
3. COc1cccc2c1C(=O)c1c(O)c3c(c(O)c1C2=O)C[C@@](O)(C(=O)CO)C[C@@H]3O[C@H]1C[C@H](N)[C@H](O)[C@H](C)O1    3.80
4. O=P1(NCCCl)OCCCN1CCCl (stereo not shown) [4HI (Ifosfamide), Ifosfamide]    3.40
5. Nc1ccn([C@@H]2O[C@H](CO)[C@@H](O)C2(F)F)c(=O)n1    0.70
6. N.N.[Cl][Pt][Cl] [Cisplatin]    2.80
7. Nc1nc2[nH]cc(CCc3ccc(C(=O)N[C@@H](CCC(=O)O)C(=O)O)cc3)c2c(=O)[nH]1    1.20
